Data provenance is ChEMBL document CHEMBL1138676.

Subject of test: UniProtKB P06536
Sequence (P06536 whole entry, looked up): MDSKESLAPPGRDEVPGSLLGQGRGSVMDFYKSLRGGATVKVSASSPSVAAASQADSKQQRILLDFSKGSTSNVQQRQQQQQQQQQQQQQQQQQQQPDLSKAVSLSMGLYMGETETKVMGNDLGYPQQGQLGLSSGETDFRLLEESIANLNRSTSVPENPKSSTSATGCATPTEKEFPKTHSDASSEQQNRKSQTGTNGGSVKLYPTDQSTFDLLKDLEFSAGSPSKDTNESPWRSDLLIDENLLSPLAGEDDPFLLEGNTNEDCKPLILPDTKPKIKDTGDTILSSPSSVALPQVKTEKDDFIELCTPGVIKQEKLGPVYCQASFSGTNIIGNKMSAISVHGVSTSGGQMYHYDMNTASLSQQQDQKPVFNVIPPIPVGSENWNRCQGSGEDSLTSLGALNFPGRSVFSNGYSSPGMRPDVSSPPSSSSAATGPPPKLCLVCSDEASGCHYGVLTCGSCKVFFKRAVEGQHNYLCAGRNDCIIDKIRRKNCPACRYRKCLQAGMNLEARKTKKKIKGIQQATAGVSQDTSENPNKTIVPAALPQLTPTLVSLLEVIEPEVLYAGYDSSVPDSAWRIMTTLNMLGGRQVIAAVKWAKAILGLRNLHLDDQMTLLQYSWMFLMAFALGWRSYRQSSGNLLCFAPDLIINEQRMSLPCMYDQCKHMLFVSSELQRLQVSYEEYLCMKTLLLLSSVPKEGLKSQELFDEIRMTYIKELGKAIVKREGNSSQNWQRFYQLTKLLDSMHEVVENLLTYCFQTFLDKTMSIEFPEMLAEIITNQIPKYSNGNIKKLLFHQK
Protocol text: Inhibition of glucocorticoid receptor mediated tyrosine aminotransferase activity
Parameters: concentration or dose not given beside the values
Applied conditions: concentration not given here
Measured attribute: inhibition (%)

INSERT INTO measurements (compound, measured_attribute, quantitative_readout) VALUES
  ('C#C[C@]1(O)CC[C@H]2[C@@H]3CCC4=CC(=O)CCC4=C3[C@@H](c3ccc(N(C)CCOCCO[C@@H]4CC[C@@]5(C)[C@@H](C4)C[C@@H](O)[C@@H]4[C@@H]5C[C@H](O)[C@]5(C)[C@@H]([C@H](C)CCC(=O)O)CC[C@@H]45)cc3)C[C@@]21C', 'inhibition', 66),
  ('C#C[C@]1(O)CC[C@H]2[C@@H]3CCC4=CC(=O)CCC4=C3[C@@H](c3ccc(N(C)CCOCCO[C@H]4CC[C@@]5(C)[C@@H](C4)C[C@@H](O)[C@@H]4[C@@H]5C[C@H](O)[C@]5(C)[C@@H]([C@H](C)CCC(=O)O)CC[C@@H]45)cc3)C[C@@]21C', 'inhibition', 60),
  ('C#C[C@]1(O)CC[C@H]2[C@@H]3CCC4=CC(=O)CCC4=C3[C@@H](c3ccc(N(C)CCCC(=O)N(C)C4CC[C@@]5(C)[C@@H](C4)C[C@@H](O)[C@@H]4[C@@H]5C[C@H](O)[C@]5(C)[C@@H]([C@H](C)CCC(=O)O)CC[C@@H]45)cc3)C[C@@]21C (stereo not given in full)', 'inhibition', 11),
  ('C#C[C@]1(O)CC[C@H]2[C@@H]3CCC4=CC(=O)CCC4=C3[C@@H](c3ccc(N(C)CCOC4CC[C@@]5(C)[C@@H](C4)C[C@@H](O)[C@@H]4[C@@H]5C[C@H](O)[C@]5(C)[C@@H]([C@H](C)CCC(=O)O)CC[C@@H]45)cc3)C[C@@]21C (stereo in doubt; form 1)', 'inhibition', 49),
  ('C#C[C@]1(O)CC[C@H]2[C@@H]3CCC4=CC(=O)CCC4=C3[C@@H](c3ccc(N(C)CCCOC4CC[C@@]5(C)[C@@H](C4)C[C@@H](O)[C@@H]4[C@@H]5C[C@H](O)[C@]5(C)[C@@H]([C@H](C)CCC(=O)O)CC[C@@H]45)cc3)C[C@@]21C (stereo not given in full)', 'inhibition', 64);
